This collection of values is drawn from paper PMC6682128.

experiment: Cytotoxicity assay; format: cell-based; details: human, Huh7.5-3a (S52) replicon cells
Documented CC50 at 3 days across a set of compounds

// solved cases for CC50 at 3 days follow
CCOC(=O)N[C@@H](CC(C)C)C(=O)N1CCC[C@H]1C(=O)Nc1cccc(C#CC#Cc2cccc(NC(=O)[C@@H]3CCCN3C(=O)[C@H](CC(C)C)NC(=O)OCC)c2)c1 [2f]; > 200 µM
COC(=O)N[C@H](C(=O)N1CCC[C@H]1C(=O)Nc1cccc(C#CC#Cc2cccc(NC(=O)[C@@H]3CCCN3C(=O)[C@@H](NC(=O)OC)C(C)C)c2)c1)C(C)C [2a]; > 200 µM
COC(=O)N[C@H](CC(C)C)C(=O)N1CCC[C@H]1C(=O)Nc1cccc(C#CC#Cc2cccc(NC(=O)[C@@H]3CCCN3C(=O)[C@@H](CC(C)C)NC(=O)OC)c2)c1 [2p]; > 200 µM

# input State the recorded CC50 at 3 days for this entry: CCOC(=O)N[C@H](CC(C)C)C(=O)N1CCC[C@H]1C(=O)Nc1cccc(C#CC#Cc2cccc(NC(=O)[C@@H]3CCCN3C(=O)[C@@H](CC(C)C)NC(=O)OCC)c2)c1 [2q]
# output > 200 µM

# input State the recorded CC50 at 3 days for this entry: COC(=O)N[C@H](C(=O)N1CCC[C@H]1c1nc(-c2ccc(-c3ccc(-c4c[nH]c([C@@H]5CCCN5C(=O)[C@@H](NC(=O)OC)C(C)C)n4)cc3)cc2)c[nH]1)C(C)C [daclatasvir, reference compound]
# output 17.7 µM

---

Documented CC50, genotype 4a (ED43) across a set of compounds
test system: Huh7.5-4a (ED43) replicon cells; assay: Cytotoxicity assay; format: cell-based, human; settings: ATP levels

// solved cases for CC50, genotype 4a (ED43) follow
COC(=O)N[C@H](C(=O)N1CCC[C@H]1C(=O)Nc1cccc(C#CC#Cc2cccc(NC(=O)[C@@H]3CCCN3C(=O)[C@@H](NC(=O)OC)C(C)C)c2)c1)C(C)C; >200 000 nM
COC(=O)N[C@H](C(=O)N1CCC[C@H]1c1nc(-c2ccc(-c3ccc(-c4c[nH]c([C@@H]5CCCN5C(=O)[C@@H](NC(=O)OC)C(C)C)n4)cc3)cc2)c[nH]1)C(C)C [daclatasvir, reference compound]; 17 700 nM
CCOC(=O)N[C@H](CC(C)C)C(=O)N1CCC[C@H]1C(=O)Nc1cccc(C#CC#Cc2cccc(NC(=O)[C@@H]3CCCN3C(=O)[C@@H](CC(C)C)NC(=O)OCC)c2)c1; >200 000 nM
COC(=O)N[C@H](CC(C)C)C(=O)N1CCC[C@H]1C(=O)Nc1cccc(C#CC#Cc2cccc(NC(=O)[C@@H]3CCCN3C(=O)[C@@H](CC(C)C)NC(=O)OC)c2)c1; >200 000 nM

Continue with the next compound.
# input Item `CCOC(=O)N[C@@H](CC(C)C)C(=O)N1CCC[C@H]1C(=O)Nc1cccc(C#CC#Cc2cccc(NC(=O)[C@@H]3CCCN3C(=O)[C@H](CC(C)C)NC(=O)OCC)c2)c1` with Huh7.5-4a (ED43) replicon cells - CC50, genotype 4a (ED43)?
# output >200 000 nM

---

experiment: Cytotoxicity assay; assay type: cell-based; conditions: human
property-name: CC50 at 3 days

CCOC(=O)N[C@@H](CC(C)C)C(=O)N1CCC[C@@H]1C(=O)Nc1ccc(C#CC#Cc2ccc(NC(=O)[C@H]3CCCN3C(=O)[C@H](CC(C)C)NC(=O)OCC)cc2)cc1; > 10 µM
CCOC(=O)N[C@@H](CC(C)C)C(=O)N1CCC[C@H]1C(=O)Nc1ccc(C#CC#Cc2ccc(NC(=O)[C@@H]3CCCN3C(=O)[C@H](CC(C)C)NC(=O)OCC)cc2)cc1; > 10 µM
COC(=O)N[C@@H](CC(C)C)C(=O)N1CCC[C@H]1C(=O)Nc1cccc(C#CC#Cc2cccc(NC(=O)[C@@H]3CCCN3C(=O)[C@H](CC(C)C)NC(=O)OC)c2)c1; > 20 µM
CCOC(=O)N[C@@H](C(=O)N1CCC[C@@H]1C(=O)Nc1ccc(C#CC#Cc2ccc(NC(=O)[C@H]3CCCN3C(=O)[C@H](NC(=O)OCC)C(C)C)cc2)cc1)C(C)C; > 10 µM
CCOC(=O)N[C@@H](C(=O)N1CCC[C@H]1C(=O)Nc1cccc(C#CC#Cc2cccc(NC(=O)[C@@H]3CCCN3C(=O)[C@H](NC(=O)OCC)C(C)C)c2)c1)C(C)C; > 20 µM
CCCCOC(=O)N[C@@H](CC(C)C)C(=O)N1CCC[C@H]1C(=O)Nc1cccc(C#CC#Cc2cccc(NC(=O)[C@@H]3CCCN3C(=O)[C@H](CC(C)C)NC(=O)OCCCC)c2)c1; > 10 µM
COC(=O)N[C@H](C(=O)N1CCC[C@H]1c1nc(-c2ccc(-c3ccc(-c4c[nH]c([C@@H]5CCCN5C(=O)[C@@H](NC(=O)OC)C(C)C)n4)cc3)cc2)c[nH]1)C(C)C [daclatasvir, reference compound]; 17.7 µM
CC(C)C[C@H](NC(=O)OCc1ccccc1)C(=O)N1CCC[C@H]1C(=O)Nc1ccc(C#CC#Cc2ccc(NC(=O)[C@@H]3CCCN3C(=O)[C@H](CC(C)C)NC(=O)OCc3ccccc3)cc2)cc1; > 10 µM

# input State the recorded CC50 at 3 days for this entry: `CCOC(=O)N[C@H](C(=O)N1CCC[C@H]1C(=O)Nc1cccc(C#CC#Cc2cccc(NC(=O)[C@@H]3CCCN3C(=O)[C@@H](NC(=O)OCC)C(C)C)c2)c1)C(C)C`
# output > 200 µM

# input State the recorded CC50 at 3 days for this entry: `CC(C)COC(=O)N[C@H](C(=O)N1CCC[C@H]1C(=O)Nc1ccc(C#CC#Cc2ccc(NC(=O)[C@@H]3CCCN3C(=O)[C@@H](NC(=O)OCC(C)C)C(C)C)cc2)cc1)C(C)C`
# output > 10 µM

# input State the recorded CC50 at 3 days for this entry: `CCOC(=O)N[C@H](C(=O)N1CCC[C@H]1C(=O)Nc1ccc(C#CC#Cc2ccc(NC(=O)[C@@H]3CCCN3C(=O)[C@@H](NC(=O)OCC)C(C)C)cc2)cc1)C(C)C`
# output 2.58 µM

# input State the recorded CC50 at 3 days for this entry: `COC(=O)N[C@H](C(=O)N1CCC[C@H]1C(=O)Nc1ccc(C#CC#Cc2ccc(NC(=O)[C@@H]3CCCN3C(=O)[C@@H](NC(=O)OC)C(C)C)cc2)cc1)C(C)C`
# output 11 µM

# input State the recorded CC50 at 3 days for this entry: `CCOC(=O)N[C@@H](C(=O)N1CCC[C@@H]1C(=O)Nc1cccc(C#CC#Cc2cccc(NC(=O)[C@H]3CCCN3C(=O)[C@H](NC(=O)OCC)C(C)C)c2)c1)C(C)C`
# output > 10 µM

# input State the recorded CC50 at 3 days for this entry: `CCOC(=O)N[C@@H](CC(C)C)C(=O)N1CCC[C@@H]1C(=O)Nc1cccc(C#CC#Cc2cccc(NC(=O)[C@H]3CCCN3C(=O)[C@H](CC(C)C)NC(=O)OCC)c2)c1`
# output > 10 µM

# input State the recorded CC50 at 3 days for this entry: `CCOC(=O)N[C@@H](CC(C)C)C(=O)N1CCC[C@H]1C(=O)Nc1cccc(C#CC#Cc2cccc(NC(=O)[C@@H]3CCCN3C(=O)[C@H](CC(C)C)NC(=O)OCC)c2)c1`
# output > 200 µM

# input State the recorded CC50 at 3 days for this entry: `CCOC(=O)N[C@H](CC(C)C)C(=O)N1CCC[C@@H]1C(=O)Nc1cccc(C#CC#Cc2cccc(NC(=O)[C@H]3CCCN3C(=O)[C@@H](CC(C)C)NC(=O)OCC)c2)c1`
# output > 10 µM

# input State the recorded CC50 at 3 days for this entry: `CCOC(=O)N[C@H](C(=O)N1CCC[C@@H]1C(=O)Nc1ccc(C#CC#Cc2ccc(NC(=O)[C@H]3CCCN3C(=O)[C@@H](NC(=O)OCC)C(C)C)cc2)cc1)C(C)C`
# output > 10 µM

# input State the recorded CC50 at 3 days for this entry: CCCCOC(=O)N[C@H](C(=O)N1CCC[C@H]1C(=O)Nc1ccc(C#CC#Cc2ccc(NC(=O)[C@@H]3CCCN3C(=O)[C@@H](NC(=O)OCCCC)C(C)CC)cc2)cc1)C(C)CC (stereo partly drawn)
# output > 10 µM

# input State the recorded CC50 at 3 days for this entry: `COC(=O)N[C@H](CC(C)C)C(=O)N1CCC[C@H]1C(=O)Nc1cccc(C#CC#Cc2cccc(NC(=O)[C@@H]3CCCN3C(=O)[C@@H](CC(C)C)NC(=O)OC)c2)c1`
# output > 200 µM

# input State the recorded CC50 at 3 days for this entry: `CCCCOC(=O)N[C@H](C(=O)N1CCC[C@H]1C(=O)Nc1cccc(C#CC#Cc2cccc(NC(=O)[C@@H]3CCCN3C(=O)[C@@H](NC(=O)OCCCC)[C@@H](C)CC)c2)c1)[C@H](C)CC`
# output > 10 µM

# input State the recorded CC50 at 3 days for this entry: `CC(C)[C@H](NC(=O)OCc1ccccc1)C(=O)N1CCC[C@H]1C(=O)Nc1ccc(C#CC#Cc2ccc(NC(=O)[C@@H]3CCCN3C(=O)[C@@H](NC(=O)OCc3ccccc3)C(C)C)cc2)cc1`
# output > 20 µM
